All values here come from ChEMBL document CHEMBL2311326.

tested on: Staphylococcus aureus; experiment: Antimicrobial activity against methicillin-sensitive Staphylococcus aureus isolate 309-1; format: functional
Kindly state MIC for each of the entries shown.
Give the quantity in µg/mL, number only.

Query: Fill blank: measured MIC of the molecule CCOC(=O)[C@H](Cc1c[nH]c2ccccc12)NSc1ccccc1[N+](=O)[O-] is ____.
Reply: 12.5

Query: Fill blank: measured MIC of the molecule O=C1C(=O)N(Sc2ccccc2[N+](=O)[O-])c2c(Cl)cccc21 is ____.
Reply: 12.5

Query: Fill blank: measured MIC of the molecule COC(=O)CC[C@H](NSc1ccc([N+](=O)[O-])cc1)C(=O)OC is ____.
Reply: 6.25

Query: Fill blank: measured MIC of the molecule CC(C)OC(=O)[C@H](Cc1c[nH]c2ccccc12)NSc1ccccc1[N+](=O)[O-] is ____.
Reply: 25

Query: Fill blank: measured MIC of the molecule O=[N+]([O-])c1ccc(S)cc1 is ____.
Reply: 1.56

Query: Fill blank: measured MIC of the molecule COC(=O)[C@H](Cc1c[nH]c2ccccc12)NSc1ccccc1[N+](=O)[O-] is ____.
Reply: 25
